This section presents compounds with their documented IC50 values.
# System: K24384-001-R-PDC complex spheroid viability
# assay_comment: Anticancer human tumor K24384-001-R-PDC patient-derived pancreatic adenocarcinoma cell line growth inhibition
# assay_setup: curve of first compound; second compound 3.16 µM
property_name: IC50 (nM)

1. CC[C@@]1(O)C(=O)OCc2c1cc1n(c2=O)Cc2cc3c(CN(C)C)c(O)ccc3nc2-1 + NC1CC1c1ccc(-c2cccc(O)c2)cc1 | 8.68
2. O=C(C=Cc1cccc(S(=O)(=O)Nc2ccccc2)c1)NO + NC1CC1c1ccc(-c2cccc(O)c2)cc1 | 235
3. CC(C)CC(NC(=O)C(Cc1ccccc1)NC(=O)c1cnccn1)B(O)O (configuration not stated) + NC1CC1c1ccc(-c2cccc(O)c2)cc1 | 0.514
4. COc1ccc([C@@H](O)c2cc(-c3ncnc4cc(N5CCOCC5)ccc34)c(F)cc2Cl)nn1 + NC1CC1c1ccc(-c2cccc(O)c2)cc1 | 1440
5. Nc1ccccc1NC(=O)c1ccc(CNC(=O)OCc2cccnc2)cc1 + NC1CC1c1ccc(-c2cccc(O)c2)cc1 | 328

---

This section presents molecules with their documented viability, T/C values.
# Tested on: K24384-001-R-PDC complex spheroid viability
# assay_comment: Anticancer human tumor K24384-001-R-PDC cell line growth inhibition;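 also: spheroids exposed to agents for seven days before luminescence viability reading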;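 as to viability, T/C: 100% = DMSO vehicle control viability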
# assay_setup: second compound 3.16 µM; first compound 0.1 µM; stronger effect = lower value
property_name: viability, T/C (%)

1) O=C(C=Cn1cnc(-c2cc(C(F)(F)F)cc(C(F)(F)F)c2)n1)NNc1cnccn1 + NC1CCC(NC2CC2c2ccccc2)CC1 | 31.8
2) CC1COCCN1c1cc(-c2ccnn2C)c2ccnc(-c3ccn[nH]3)c2n1 (centres undefined) + NC1CC1c1ccc(-c2cccc(O)c2)cc1 | 39.7
3) CC1COCCN1c1cc(C2(S(C)(=N)=O)CC2)nc(-c2ccnc3[nH]ccc23)n1 (centres undefined) + NC1CC1c1ccc(-c2cccc(O)c2)cc1 | 77.4
4) COc1cc(Nc2ncc3c(n2)-c2ccc(Cl)cc2C(c2c(F)cccc2OC)=NC3)ccc1C(=O)O + NC1CCC(NC2CC2c2ccccc2)CC1 | 57.3

---

This section presents molecules with their documented IC50 values.
# Test system: K24384-001-R-PDC complex spheroid viability
# assay_comment: Anticancer human tumor K24384-001-R-PDC cell line growth inhibition;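 also: spheroids exposed to agents for seven days before luminescence viability reading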
# assay_setup: curve of first compound; second compound 1 µM
property_name: IC50

1) CC(C)c1c(-c2ccccc2)nc2c(C#N)c[nH]n2c1=O + NC1CCC(NC2CC2c2ccccc2)CC1 | > 10 µM
2) Cn1ncnc1C1c2n[nH]c(=O)c3cc(F)cc(c23)NC1c1ccc(F)cc1 (stereo unspecified) + NC1CC1c1ccc(-c2cccc(O)c2)cc1 | > 0.1 µM
3) Cn1ncnc1C1c2n[nH]c(=O)c3cc(F)cc(c23)NC1c1ccc(F)cc1 (stereo unspecified) + NC1CCC(NC2CC2c2ccccc2)CC1 | > 0.1 µM
4) CC[C@@]1(O)C(=O)OCc2c1cc1n(c2=O)Cc2cc3c(CN(C)C)c(O)ccc3nc2-1 + NC1CC1c1ccc(-c2cccc(O)c2)cc1 | 0.00947 µM
5) CC1(C)CCC(CN2CCN(c3ccc(C(=O)NS(=O)(=O)c4ccc(NCC5CCOCC5)c([N+](=O)[O-])c4)c(Oc4cnc5[nH]ccc5c4)c3)CC2)=C(c2ccc(Cl)cc2)C1 + NC1CCC(NC2CC2c2ccccc2)CC1 | 2.28 µM
6) CC(C)CC(NC(=O)CNC(=O)c1cc(Cl)ccc1Cl)B1OC(=O)CC(CC(=O)O)(C(=O)O)O1 (stereo unspecified) + NC1CC1c1ccc(-c2cccc(O)c2)cc1 | 0.00854 µM
